Experiment: splicing luciferase reporter signal modulators, primary screen, spliceosome inhibition project, cell-based, HEK293, splice +/- reporter (AID 1101);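 note: HEK293 cells carrying a splicing-competent luciferase reporter gene; test concentration not given here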
Details: luminescence, 24 h, higher = more signal, called active from +8 up or from −8 down
# z-score annotations
Write the value as a bare number.

Compound	z-score
O=C1NC(=O)C2C1C=CC(C(O)c1ccccc1)N2Nc1ccc(Cl)cc1Cl (configuration not stated)	-1.36
COCCOC(=O)N1C(=O)[C@@]2(c3cc(C#CC4=CCCCC4)ccc31)[C@H](C(=O)Nc1nc3ccccc3s1)[C@H]1C(=O)O[C@H](c3ccccc3)[C@H](c3ccccc3)N1[C@@H]2c1ccc(OCCO)cc1	0.000305
C=CCOC(=O)[C@H]1[C@@H]2C(=O)O[C@@H](c3ccccc3)[C@@H](c3ccccc3)N2[C@@H](c2ccc(OCCOC(=O)[C@@H]3C[C@@H]4C(=O)N[C@@H](CCCC[N+](C)(C)C)C(=O)N4[C@@H]3c3ccc(O)cc3)cc2)[C@]12C(=O)Nc1ccccc12	-0.794
C=C[C@H](COC(C)=O)N(C(=O)OC(C)(C)C)S(=O)(=O)c1ccc(Br)cc1	0.353

Recorded z-score (compound O=C(NCc1ccccc1)[C@@H]1c2ccccc2C(=O)N(CC23CC4CC(CC(C4)C2)C3)[C@H]1c1ccc(CO)cc1 ): 0.152

response.value for COc1ccc([C@H]2OC[C@@H]3CC4(CC=CC4)C(=O)N32)cc1 (field: z-score) = -0.297

get_value(item= O=C1c2ccccc2[C@](Cc2ccccc2I)(C(=O)NC2CC2)[C@H](c2ccc(CO)cc2)N1Cc1ccccc1 , readout=z-score) returns -0.0921

====

Assay: Plasmodium falciparum growth inhibition, primary screen, strain 3D7, DAPI fluorescence, 100 nL (AID 1184);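 note: parasites grown inside human red blood cells in medium with human serum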
Conditions: P. falciparum 3D7 growth, 3 d, higher = more signal
z-score listing for selected compounds.
A bare number is all that is needed in reply.

Compound	z-score
O=C1OCCC/C=C\[C@H]2OC34C=CCN(c5ccc6ccccc6c5)C(=O)[C@H]3N(CCCCCCO)C(=O)[C@@H]4C12 (some centres undefined)	-0.577
Cc1ccc(S[C@]2(C(=O)NCC(F)(F)F)CC(=O)N(C(C)C)[C@@H]2c2ccc(CO)cc2I)cc1	-0.181
O=C1C2C=CC(C(O)c3c(F)cccc3Cl)N(Nc3ccccc3)C2C(=O)N1c1ccccc1 (centres undefined)	-0.342

For CCOC(=O)C[C@H]1[C@H](OC(=O)c2cc3ccccc3oc2=O)[C@@H](NC(=O)C2CCCCC2)c2cc(OCCCO)ccc2N1C(=O)c1ccccc1 the compound record lists z-score as -1.73

====

Assay: basal HepG2 mitochondrial membrane potential changes, profiling panel, cell-based, JC-1 fluorescence, 24 h, 100 nL compound (AID 1167); note: test concentration not given here
Conditions: higher = more signal
# z-score annotations
Give the figure by itself; no unit, no explanation.

Example entries and their recorded answers appear below.
CCOC(=O)C[C@H]1[C@H](OC(=O)Cc2ccc3c(c2)OCO3)[C@@H](NC(=O)c2ccc(-c3ccccc3)cc2)c2cc(OCCCO)ccc2N1C(=O)c1ccc2ccccc2n1 2.72
COc1ccc(C(=O)Nc2ccc(CN3C(=O)[C@@]4(O[C@@H](CCn5cc([C@H](O)c6ccccc6)nn5)[C@H]([Si](C)(C)c5ccc(OC)cc5)[C@H]4C)c4ccccc43)cc2)cc1 1.73

Next:
The compound identified as C=C(COC)/C(=C/C[C@@H](OC(C)=O)c1ccc(CO)o1)c1cnc2ccccc2c1 registered its z-score at -0.733
